Test system: Fibroblast
Assay: Incucyte cell viability with human fibroblast; also: unitless GR value; below 1 slowed growth and below 0 cell loss
Type: toxicity, cell-based
Details: 0 h, 10 µM, compound concentration 10 uM, replicate number 2
Mark t for Growth Rate under -0.1, f if at or over.

# compound, target-system, answer-label
records = [
    ("Cc1nn(-c2ccccc2)c(Nc2ccccc2C(=O)O)c1-c1cc2nccnc2c(F)c1F", "Fibroblast", "t"),
    ("CCc1cnn2c(NCc3ccc[n+]([O-])c3)cc(N3CCCCC3CCO)nc12 (centres undefined)", "Fibroblast", "f"),
    ("CC[C@H](Nc1ncnc2[nH]cnc12)c1nc2cccc(F)c2c(=O)n1-c1ccccc1", "Fibroblast", "t"),
    ("Cn1ccc(Cn2cnc(-c3ccc(F)cc3)c2-c2ccnc3[nH]ccc23)n1", "Fibroblast", "f"),
    ("CCCCC(C)(O)C/C=C/[C@H]1[C@H](O)CC(=O)[C@@H]1CCCCCCC(=O)O (some centres undefined)", "Fibroblast", "t"),
    ("C[C@H](NC(=O)c1cc(Cl)ccc1Oc1ccc(F)cc1)c1ccc(C(=O)O)cc1", "Fibroblast", "t"),
    ("C1CCC(NC2CCCCC2)CC1.Cc1cc(Cl)ccc1S(=O)(=O)NC[C@H]1C2CCC(CC2)[C@@H]1/C=C\\CCCC(=O)O", "Fibroblast", "t"),
    ("C1=Cc2ccccc2C(=C2CCN(CCCCc3nn[nH]n3)CC2)c2ccccc21", "Fibroblast", "t"),
    ("Clc1cccc(Nc2nccc(NCCCN3CCOCC3)n2)c1", "Fibroblast", "f"),
]

Data credit: ChEMBL document CHEMBL5303304
